Entries annotated with measured binding score
Target: T1, Bdf1 bromodomain 2 (GST-tagged, WT) (Saccharomyces cerevisiae (strain ATCC …, UniProt P35817))
T1 chain: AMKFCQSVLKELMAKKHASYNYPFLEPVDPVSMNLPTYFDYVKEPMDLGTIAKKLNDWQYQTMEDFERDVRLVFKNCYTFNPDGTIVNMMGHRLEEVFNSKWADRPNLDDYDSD
Experiment: histone peptide array probed with recombinant GST-bromodomain, signal normalised to myc peptide control
Non-standard residues stand in square brackets, D forms with d. Primed or numbered codes have the meaning given here. No end group written: not given here. Me2a″ = asymmetric dimethylarginine (Rme2a); Arg(Me2s) = CN=C(NC)NCCC[C@H](N)C(=O)O; pT = C[C@@H](OP(=O)(O)O)[C@H](N)C(=O)O; pS = N[C@@H](COP(=O)(O)O)C(=O)O; Lys(Me) = CNCCCC[C@H](N)C(=O)O
Please respond with just the number, no unit label.

Below are worked cases with known answers.
AR(Me2a″)TK(Ac)QTAR(Me2a″)K(Ac)STGGKAPRKQ | 0.0867
PDPAKSAPAPKKG[pS]K(Ac)KAVT [H2B 1-19] | 0.142
ARTKQTARKSTGGKAPRKQ (A R T Kme1 Q T A Rme2s Kme3 S T G G K A P R K Q) | 0

Reported binding score, binder ARTKQTARKSTGGKAPRKQ (A Rme2s T Kme1 Q T A R Kme3 S T G G K A P R K Q) : ____
0.000295

And the next one, ARTKQTARKSTGGKAPRKQ (A Rme2a T Kme3 Q T A Rme2s Kac S T G G K A P R K Q) ?
0.0261

Please give the result for ARTKQTARKSTGGKAPRKQ (A R T Kme2 Q T A Rme2a Kme3 S T G G K A P R K Q) too.
0

Ok, now ART[Lys(Me)]QTA[Arg(Me2s)][Lys(Me)]STGGKAPRKQ
0

Same question, A[Arg(Me2s)][pT][Lys(Me)]QTARKSTGGKAPRKQ this time
0.00344

Next binder: [pS]GRGKQGGKARAK(Ac)AKSRSS [H2a 1-19]
0.0125

Next binder: RKSAPATGGVKKPHRYRPG (histone peptides carry modifications given inline in the sequence and in columns 4-7 (Kac, Kme1/2/3, Rme2a/s, Cit, pS/pT); N-terminus free or acetylated) [H3 26-45]
0.00305
